# Test system: K. pneumoniae ST258
# test summary: MIC by broth microdilution
# Assay type: cell-based, Klebsiella pneumoniae
# measurement context: average of EC50 (HepG2, NIH 3T3) divided by MIC
experimental endpoint: Selectivity Index (SI) K. pneumoniae ST258

compound	observed measurement
CC(=O)N[C@@H](CCCCN)C(=O)N(CCC(=O)N[C@@H](CCCCN)C(=O)N(CCC(=O)N[C@@H](CCCCN)C(=O)N(CCC(=O)N[C@@H](CCCCN)C(=O)N(CCC(=O)N[C@@H](CCCCN)C(=O)N(CCC(=O)N[C@@H](CCCCN)C(=O)N(CCC(=O)N[C@@H](CCCCN)C(=O)N(CCC(=O)N[C@@H](CCCCN)C(=O)N(CCC(N)=O)Cc1ccccc1)Cc1ccccc1)Cc1ccccc1)Cc1ccccc1)Cc1ccccc1)Cc1ccccc1)Cc1ccccc1)Cc1ccccc1 [Peptidomimetic 15, Ac-(Lys-βNPhe)8-NH2]	(5)
CC(=O)N[C@@H](CCCCN)C(=O)N(CCC(=O)N[C@@H](CCCCN)C(=O)N(CCC(=O)N[C@@H](CCCCN)C(=O)N(CCC(=O)N[C@@H](CCCCN)C(=O)N(CCC(=O)N[C@@H](CCCCN)C(=O)N(CCC(=O)N[C@@H](CCCCN)C(=O)N(CCC(N)=O)Cc1ccccc1)Cc1ccccc1)Cc1ccccc1)Cc1ccccc1)Cc1ccccc1)Cc1ccccc1 [Peptidomimetic 14, Ac-(Lys-βNPhe)6-NH2]	(4)
C[C@@H](c1ccccc1)N(CCC(N)=O)C(=O)[C@H](CCCCNC(=N)N)NC(=O)CCN(C(=O)[C@H](CCCCN)NC(=O)CCN(C(=O)[C@H](CCCCNC(=N)N)NC(=O)CCN(C(=O)[C@H](CCCCN)NC(=O)CCN(C(=O)[C@H](CCCCNC(=N)N)NC(=O)CCN(C(=O)[C@H](CCCCN)NC(=O)CNCCCNCCCCNCCCN)[C@@H](C)c1ccccc1)[C@@H](C)c1ccccc1)[C@@H](C)c1ccccc1)[C@@H](C)c1ccccc1)[C@@H](C)c1ccccc1 [Peptidomimetic 26, Spermine-(Lys-βNspe-hArg-βNspe)3-NH2]	(7)
COCCOCCOCC(=O)N[C@@H](CCCCN)C(=O)N(CCC(=O)N[C@@H](CCCCNC(=N)N)C(=O)N(CCC(=O)N[C@@H](CCCCN)C(=O)N(CCC(=O)N[C@@H](CCCCNC(=N)N)C(=O)N(CCC(=O)N[C@@H](CCCCN)C(=O)N(CCC(=O)N[C@@H](CCCCNC(=N)N)C(=O)N(CCC(N)=O)[C@@H](C)c1ccccc1)[C@@H](C)c1ccccc1)[C@@H](C)c1ccccc1)[C@@H](C)c1ccccc1)[C@@H](C)c1ccccc1)[C@@H](C)c1ccccc1 [Peptidomimetic 28, TODA-(Lys-βNspe-hArg-βNspe)3-NH2]	(10)
NCCCC[C@H](NC(=O)CCN(Cc1ccccc1)C(=O)[C@H](CCCCN)NC(=O)CCN(Cc1ccccc1)C(=O)[C@H](CCCCN)NC(=O)CCN(Cc1ccccc1)C(=O)[C@H](CCCCN)NC(=O)CCN(Cc1ccccc1)C(=O)[C@H](CCCCN)NC(=O)CCN(Cc1ccccc1)C(=O)[C@H](CCCCN)NC(=O)CCN(Cc1ccccc1)C(=O)[C@H](CCCCN)NC(=O)CCN(Cc1ccccc1)C(=O)[C@@H](N)CCCCN)C(=O)N(CCC(N)=O)Cc1ccccc1 [Peptidomimetic 1, H-(Lys-βNPhe)8-NH2]	(10)
C[C@@H](c1ccccc1)N(CCC(N)=O)C(=O)[C@H](CCCCNC(=N)N)NC(=O)CCN(C(=O)[C@H](CCCCN)NC(=O)CCN(C(=O)[C@H](CCCCNC(=N)N)NC(=O)CCN(C(=O)[C@H](CCCCN)NC(=O)CCN(C(=O)[C@H](CCCCNC(=N)N)NC(=O)CCN(C(=O)[C@H](CCCCN)NC(=O)CNCCN)[C@@H](C)c1ccccc1)[C@@H](C)c1ccccc1)[C@@H](C)c1ccccc1)[C@@H](C)c1ccccc1)[C@@H](C)c1ccccc1 [Peptidomimetic 25, NDab-Lys-βNspe-hArg-βNspe)3-NH2]	(16)
